These entries and their values trace back to patent US10717716B2.

target: human recombinant HDAC6 (Homo sapiens); construct: purchased Calbiochem 382180; experiment: HDAC6 enzyme activity inhibition assay (HDAC Fluorimetric Drug Discovery Kit); format: biochemical; conditions: HDAC6 over HDAC1
readoutLabel: HDAC6 selectivity (fold)

1. O=C(N1CCOCC1)N(Cc1ccc(-c2nnc(C(F)F)o2)cc1F)c1cccs1; 79
2. O=C(N1CCS(=O)(=O)CC1)N(Cc1ccc(-c2nnc(C(F)(F)F)o2)cc1F)c1ccccc1; 179
3. O=C(N1CCOCC1)N(Cc1ccc(-c2nnc(C(F)(F)F)o2)cc1F)CC12CC3CC(CC(C3)C1)C2; 4
4. CCN1CCN(C(=O)N(Cc2ccc(-c3nnc(C(F)(F)F)o3)cc2F)c2cccc(F)c2)CC1; 174
5. CCN1CCN(C(=O)N(Cc2ccc(-c3nnc(C(F)F)o3)cc2F)c2cccc(F)c2F)CC1; 690
6. CCN1CCN(C(=O)N(Cc2ccc(-c3nnc(C(F)F)o3)cc2)c2cccc(F)c2)CC1; 268
7. O=C(N1CCN(C2COC2)CC1)N(Cc1ccc(-c2nnc(C(F)F)o2)cc1)c1ccccc1; 245
8. Cc1cccc(N(Cc2ccc(-c3nnc(C(F)F)o3)cn2)C(=O)N2CCN(C)CC2)c1; 323
9. CCN1CCN(C(=O)N(Cc2ccc(-c3nnc(C(F)(F)F)o3)cc2F)c2ccc(F)c(Br)c2)CC1; 59
10. O=C(N1CCS(=O)(=O)CC1)N(Cc1ccc(-c2nnc(C(F)F)o2)cc1)c1ccccc1; 282
11. CCN1CCN(Cc2cccc(N(Cc3ccc(-c4nnc(C(F)F)o4)cc3F)C(=O)N3CCS(=O)(=O)CC3)c2)CC1; 36
12. O=C(N1CCOCC1)N(Cc1ccc(-c2nnc(C(F)(F)F)o2)cc1)c1ccccn1; 54
13. CC(=O)N1CCC2(CC1)CN(C(=O)N(Cc1ccc(-c3nnc(C(F)F)o3)cc1F)c1ccccc1)C2; 400
14. Cc1ccc(N(Cc2ccc(-c3nnc(C(F)F)o3)cc2F)C(=O)N2CCN(C)CC2)cc1; 213
15. CC(=O)N1[C@H](C)CN(C(=O)N(Cc2ccc(-c3nnc(C(F)(F)F)o3)cc2)c2ccccc2)C[C@@H]1C; 41

---

biological target: human recombinant HDAC6 (Homo sapiens, UniProt Q9UBN7); construct: purchased Calbiochem 382180; experiment: HDAC6 enzyme activity inhibition assay (HDAC Fluorimetric Drug Discovery Kit); format: biochemical; details: human recombinant HDAC6, same protocol as HDAC1; read-out: HDAC6
Sequence (Q9UBN7 whole entry): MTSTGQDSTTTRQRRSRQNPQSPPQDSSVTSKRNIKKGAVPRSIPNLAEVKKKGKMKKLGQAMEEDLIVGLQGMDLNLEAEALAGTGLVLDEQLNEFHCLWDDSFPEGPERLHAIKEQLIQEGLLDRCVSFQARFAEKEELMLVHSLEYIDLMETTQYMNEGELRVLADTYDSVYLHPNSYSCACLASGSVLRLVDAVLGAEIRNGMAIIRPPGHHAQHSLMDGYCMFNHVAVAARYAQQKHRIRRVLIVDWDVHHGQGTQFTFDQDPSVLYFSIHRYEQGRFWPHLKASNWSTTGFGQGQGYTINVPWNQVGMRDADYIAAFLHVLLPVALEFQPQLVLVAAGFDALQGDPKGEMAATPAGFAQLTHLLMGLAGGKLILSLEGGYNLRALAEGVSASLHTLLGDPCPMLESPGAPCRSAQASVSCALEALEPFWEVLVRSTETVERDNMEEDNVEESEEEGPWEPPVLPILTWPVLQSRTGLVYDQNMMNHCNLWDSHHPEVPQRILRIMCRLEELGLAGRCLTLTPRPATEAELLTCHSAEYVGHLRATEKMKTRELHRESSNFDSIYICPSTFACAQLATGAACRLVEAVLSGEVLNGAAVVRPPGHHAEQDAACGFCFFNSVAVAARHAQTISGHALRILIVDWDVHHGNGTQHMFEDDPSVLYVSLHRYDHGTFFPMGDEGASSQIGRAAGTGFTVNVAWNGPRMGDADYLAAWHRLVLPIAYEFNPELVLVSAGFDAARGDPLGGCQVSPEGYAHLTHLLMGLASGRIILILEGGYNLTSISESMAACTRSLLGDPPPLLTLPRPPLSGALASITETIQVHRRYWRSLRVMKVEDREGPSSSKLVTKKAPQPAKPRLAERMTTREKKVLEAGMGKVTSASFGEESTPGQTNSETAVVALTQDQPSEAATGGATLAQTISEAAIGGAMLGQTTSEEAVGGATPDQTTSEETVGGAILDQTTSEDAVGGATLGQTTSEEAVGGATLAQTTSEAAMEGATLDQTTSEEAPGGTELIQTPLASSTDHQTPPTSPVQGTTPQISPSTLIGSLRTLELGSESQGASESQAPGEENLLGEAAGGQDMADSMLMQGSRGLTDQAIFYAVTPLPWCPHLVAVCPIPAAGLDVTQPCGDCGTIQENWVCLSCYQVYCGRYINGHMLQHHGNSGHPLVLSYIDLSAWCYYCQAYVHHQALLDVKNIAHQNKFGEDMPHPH
readoutLabel: log10(IC50) (log10 of the value in nM)

1) O=C(N1CCS(=O)(=O)CC1)N(Cc1ccc(-c2nnc(C(F)F)o2)cn1)c1ccc(F)cc1 [Compound 21829]; 1.49
2) CN1CCN(CCNC(=O)N(Cc2ccc(-c3nnc(C(F)F)o3)cc2F)c2ccccc2)CC1 [Compound 21958]; 1.94
3) O=C(N1CCOCC1)N(CCc1ccc(-c2nnc(C(F)(F)F)o2)cc1)c1ccccc1 [Compound 21348]; 3.92
4) CCN1CCN(Cc2ccc(N(Cc3ccc(-c4nnc(C(F)F)o4)cc3F)C(=O)N3CCS(=O)(=O)CC3)cc2)CC1 [Compound 21899]; 1.74
5) C[C@@H]1CN(Cc2ccc(N(Cc3ccc(-c4nnc(C(F)F)o4)cc3F)C(=O)N3CCS(=O)(=O)CC3)cc2)C[C@H](C)N1Cc1ccccc1 [Compound 21926]; 2.55
6) O=C(N1CC=C(c2ccccc2)CC1)N(Cc1ccc(-c2nnc(C(F)(F)F)o2)cc1)c1ccccc1 [Compound 21359]; 3.36
7) CN1CCN(C(=O)N(Cc2ccc(-c3nnc(C(F)(F)F)o3)cn2)c2ccccc2F)CC1 [Compound 21634]; 2.08
8) O=C(N1CCS(=O)(=O)CC1)N(Cc1ccc(-c2nnc(C(F)F)o2)cc1F)c1ccccc1 [Compound 21370]; 1.40
9) O=C(N1CCS(=O)(=O)CC1)N(Cc1ccc(-c2nnc(C(F)(F)F)o2)cc1F)c1ccc(-c2ccncc2)cc1 [Compound 21519]; 2.12
10) O=C(N1CCOCC1)N(Cc1ccc(-c2nnc(C(F)F)o2)cn1)c1ccc(F)cc1 [Compound 21839]; 1.53
11) CCN1CCN(C(=O)N(Cc2ccc(-c3nnc(C(F)F)o3)cc2F)c2cccc(Cl)c2)CC1 [Compound 21878]; 1.61
12) CCN(CC)c1ccc(N(Cc2ccc(-c3nnc(C(F)(F)F)o3)cc2F)C(=O)N2CCS(=O)(=O)CC2)cc1 [Compound 21552]; 3.18
13) CC(C)(C)CN1CCN(Cc2ccc(N(Cc3ccc(-c4nnc(C(F)(F)F)o4)cc3F)C(=O)N3CCS(=O)(=O)CC3)cc2)CC1 [Compound 21897]; 2.69
14) O=C(N1CCS(=O)(=O)CC1)N(Cc1ccc(-c2nnc(C(F)F)o2)cc1F)c1cccc(F)c1 [Compound 21807]; 1.59

---

biological target: human recombinant HDAC6 (Homo sapiens); construct: purchased Calbiochem 382180; assay: HDAC6 enzyme activity inhibition assay (HDAC Fluorimetric Drug Discovery Kit); assay type: biochemical; conditions: human recombinant HDAC6, same protocol as HDAC1; read-out: HDAC6
Simple rule here: IC50 less than 70 nM is Met, otherwise Not met.

1. O=C(N1CCOCC1)N(Cc1ccc(-c2nnc(C(F)(F)F)o2)cc1)c1ccc(F)c(Cl)c1 [Compound 21594]; Not met
2. O=C(N1CCS(=O)(=O)CC1)N(Cc1ccc(-c2nnc(C(F)F)o2)cn1)c1cccc(Cl)c1 [Compound 21626]; Met
3. O=C(N1CCS(=O)(=O)CC1)N(Cc1ccc(-c2nnc(C(F)F)o2)cc1F)c1ccc(CN2CCOCC2)cc1 [Compound 21918]; Not met
4. COc1cccc(N(Cc2ccc(-c3nnc(C(F)F)o3)cc2F)C(=O)N2CCS(=O)(=O)CC2)c1 [Compound 21482]; Met
5. CN1CCN(CCNC(=O)N(Cc2ccc(-c3nnc(C(F)F)o3)cc2F)c2ccccc2)CC1 [Compound 21993]; Not met
6. CCN1CCN(C(=O)N(Cc2ccc(-c3nnc(C(F)(F)F)o3)cc2F)c2ccc(OC)cc2)CC1 [Compound 21875]; Not met

---

Target: human recombinant HDAC6 (Homo sapiens)
Construct: purchased Calbiochem 382180
Test: HDAC6 enzyme activity inhibition assay (HDAC Fluorimetric Drug Discovery Kit)
Type: biochemical
Conditions: human recombinant HDAC6, same protocol as HDAC1; read-out: HDAC6
Procedure: In order to examine the HDAC6 selectivity of the compounds of formula I of the present invention by HDAC1 and HDAC6 enzymatic activity inhibition assays, an experiment was performed using a conventional substance as a control. HDAC enzyme activity was measured using a HDAC Fluorimetric Drug Discovery Kit (BML-AK511, 516, Enzo Life Science). […] Based on the resulting values, each IC5, value was calculated using GraphPad Prism4.0 program.
pIC50: −log10 of the molar value.
readoutLabel: pIC50

1. O=C(N1CCOCC1)N(Cc1ccc(-c2nnc(C(F)(F)F)o2)cn1)c1ccc(F)cc1F [Compound 21857]; 6.88
2. O=C(N1CC[C@H](F)C1)N(Cc1ccc(-c2nnc(C(F)(F)F)o2)cc1F)c1ccc(F)c(Cl)c1 [Compound 21666]; 6.43
3. CC(=O)N1CCC2(CC1)CN(C(=O)N(Cc1ccc(-c3nnc(C(F)F)o3)cc1F)c1ccccc1)C2 [Compound 21500]; 7.60
4. O=C(N1CCOCC1)N(Cc1ccc(-c2nnc(C(F)F)o2)cc1F)c1cccs1 [Compound 22019]; 6.90
5. O=C(N1CCS(=O)(=O)CC1)N(Cc1ccc(-c2nnc(C(F)(F)F)o2)cc1)c1cccc(-c2ccc3c(c2)OCO3)c1 [Compound 21437]; 6.13
6. CN1CCN(C(=O)N(Cc2ccc(-c3nnc(C(F)F)o3)cc2F)c2ccc(-c3ccncc3)cc2)CC1 [Compound 21541]; 7.19
7. CCN1CCN(C(=O)N(Cc2ccc(-c3nnc(C(F)(F)F)o3)cc2F)c2cccc(F)c2F)CC1 [Compound 21659]; 6.99

---

We begin with a simple list: items and their reported pIC50.
target: human recombinant HDAC6 (Homo sapiens); construct: purchased Calbiochem 382180; assay: HDAC6 enzyme activity inhibition assay (HDAC Fluorimetric Drug Discovery Kit); format: biochemical; conditions: human recombinant HDAC6, same protocol as HDAC1; read-out: HDAC6
pIC50: −log10 of the molar value.
readoutLabel: pIC50

1) O=C(N1CCS(=O)(=O)CC1)N(Cc1ccc(-c2nnc(C(F)F)o2)cc1F)c1cccc(Cl)c1 [Compound 21810]; 7.74
2) O=C(N1CCOCC1)N(Cc1ccc(-c2nnc(C(F)(F)F)o2)cc1)c1cccc(C(F)(F)F)c1 [Compound 21405]; 6.45
3) O=C(N1CCS(=O)(=O)CC1)N(Cc1ccc(-c2nnc(C(F)F)o2)cn1)c1ccc(-c2ccncc2)cc1 [Compound 21823]; 7.25
4) Cn1ncc2c(N(Cc3ccc(-c4nnc(C(F)F)o4)cc3F)C(=O)N3CCS(=O)(=O)CC3)cccc21 [Compound 21710]; 7.59
